# test-details: qHTS RealTime-Glo MT Cell Viability Assay in HEK293 cells - 8 hour (AID 1224887); note: nearly all actives have a fitted effect of over 50% in size
# assay-conditions: RealTime-Glo luminescence; series mostly up to 76.8 µM
Records with an inconclusive call do not appear. Activity calls are given as the source filed them. Calls come from the whole dose curve; as a rule, active = well fitted cell-killing curve with a large enough effect in the repeat runs; inconclusive = weak or mixed curves, or effect the other way; inactive = flat fitted curve, though single readings scatter.
Your reply should match one of these outcome classes. true = active, false = inactive

[Hg+2].[I-].[I-] : true

Hi team, can someone confirm the assay call for CCOP(=S)(OCC)SCCS(=O)(=O)CC ?
false

Hi team, can someone confirm the assay call for O=c1c(C2CC(c3ccc(-c4ccc(Br)cc4)cc3)Cc3ccccc32)c(O)sc2ccccc12 (centres undefined) ?
false

Hi team, can someone confirm the assay call for Cc1cc(C)cc(OP(=O)(Oc2cc(C)cc(C)c2)Oc2cc(C)cc(C)c2)c1 ?
false

Hi team, can someone confirm the assay call for Nc1ccc(Cc2ccc(N)c(Cl)c2)cc1Cl ?
true

Hi team, can someone confirm the assay call for COP(N)(=S)OC ?
false

Hi team, can someone confirm the assay call for COC[C@H](C)N(C(=O)CCl)c1c(C)csc1C ?
false

Hi team, can someone confirm the assay call for NC(=O)c1ccc(N)nc1 ?
false

Hi team, can someone confirm the assay call for Cc1cc(C(F)(C(F)(F)F)C(F)(F)F)ccc1NC(=O)c1cccc(I)c1C(=O)NC(C)(C)CS(C)(=O)=O ?
false

Hi team, can someone confirm the assay call for COP(=O)(OC)SCn1c(=O)oc2cc(Cl)cnc21 ?
false

Hi team, can someone confirm the assay call for N#CCc1ccc(Cl)cc1 ?
false
